Conditions: buffer; pH 7.4; 200.0 µM
measured-metric: solubility kinetic (µg/mL)
Give the value, in units of µg/mL, as a plain number.

Below, 5 molecules whose answers are already recorded.
INSERT INTO assay_data (molecule, experimental_value) VALUES
  ('CC(C)(C)N(Cc1ccccc1)C(=O)CN1C(=O)c2ccccc2S1(=O)=O', 15.7),
  ('Cc1cccc(NC(=O)CSc2nc3ccccc3c(=O)n2C)c1', 0.5),
  ('COCCn1c(N)c(Sc2ccc(Cl)cc2)c(=O)[nH]c1=O', 47.4),
  ('Cc1sc2ncnc(NCC(O)c3ccccc3)c2c1C (configuration not stated)', 6.6),
  ('CCc1ccc(CN2C(=O)c3ccccc3C2C(=O)NC(C)CC)cc1 (configuration not stated)', 5.3);

Here's the next entry for you.
query: Returns the measured solubility kinetic for the input molecule. Input: Cc1noc(C)c1C(=O)OCC(=O)N1CCc2ccccc21
result: 4.8

====

Details: buffer; pH 7.4; 200.0 µM
Label met when solubility kinetic >= 30 µg/mL; otherwise not met.

INSERT INTO results (molecule, assigned_label) VALUES
  ('O=C(O)Cn1cc(C=C2C(=O)NC(=O)NC2=O)c2ccccc21', 'met'),
  ('COc1cc(NC(C)CCc2ccccc2)cc(OC)c1OC (stereo not given)', 'met'),
  ('COc1ccccc1N1CC(C(=O)Nc2ccc(S(=O)(=O)N3CCCC3)cc2)CC1=O (stereo not given)', 'met');

query: API: above_or_equal(metric=solubility kinetic, cutoff=30 µg/mL) for item CN(C)c1ccc(CC2C(=O)Nc3ccccc32)cc1 (stereo not given)
result: met

query: Dear colleague, could you confirm whether COc1ccc2[nH]c(C(=O)N3CCC(Cc4ccccc4)CC3)cc2c1 has solubility kinetic at or above 30 µg/mL?
result: not met

query: For this molecule, is measured solubility kinetic 30 µg/mL or higher? CCC1CN(C(=O)NCc2ccccc2)c2cc(C)ccc2O1 (stereo not given)
result: not met

query: Hi team, for CC1(O)CCN2C(=O)CCc3cccc1c32 (stereo not given) , is the recorded solubility kinetic at or above 30 µg/mL?
result: not met

query: API: above_or_equal(metric=solubility kinetic, cutoff=30 µg/mL) for item COC(=O)c1ccccc1NC(=O)Nc1ccc(C)cn1
result: met

query: Hi team, for CCCCNC(=O)NC(C(N)=O)P(=O)(OCC)OCC (stereo not given) , is the recorded solubility kinetic at or above 30 µg/mL?
result: met

query: Is the recorded value of solubility kinetic equal to or greater than 30 µg/mL for this molecule? COc1cc(N2C(=O)CC(=O)NC2=O)cc(OC)c1OC
result: met

query: Assess whether reported solubility kinetic for COc1ccc(N2CCN(C(=O)NC(=O)c3ccc(Cl)cc3)CC2)cc1 sits at 30 µg/mL or higher.
result: not met

====

Conditions: buffer; pH 7.4; 200.0 µM
measured-metric: solubility kinetic (µg/mL)
Answer in µg/mL, number only, no unit symbol.

# annotated cases, reported solubility kinetic shown
INSERT INTO assay_data (query_smiles, measured_metric, uom, experimental_value) VALUES
  ('CSc1ncccc1C(=O)OCC(=O)c1cc(C)n(C)c1C', 'solubility kinetic', 'µg/mL', 3.9),
  ('COC(=O)c1ccc(S(=O)(=O)NCc2ccco2)n1C', 'solubility kinetic', 'µg/mL', 44.3),
  ('O=C(Nc1sc2c(c1C(=O)O)CCCC2)c1cccc(Cl)c1', 'solubility kinetic', 'µg/mL', 45.5);

query: State the recorded solubility kinetic for this entry: COc1ccccc1OCCn1c(=O)n(C)c2ccccc21
result: 42.2
